Value source: ChEMBL document CHEMBL1152236

# ASSAYED_SYSTEM: Carbonic anhydrase 2 (Homo sapiens, UniProt P00918)
# PROCEDURE_TEXT: Inhibition of human carbonic anhydrase 2 esterase activity by competitive Lineweaver-Burke plot
ASSAY_METRIC: Ki (µM)
The reply should be a number in µM, with the unit left off.

GET /values?item= O=C(O)c1ccc(S(=O)(=O)O)cc1O &system= Carbonic anhydrase 2 (Homo sapiens, UniProt P00918) returns Ki: 1060

----------
# ASSAYED_SYSTEM: Carbonic anhydrase 2 (Homo sapiens, UniProt P00918)
# PROCEDURE_TEXT: Inhibition of human carbonic anhydrase 2 esterase activity by non-competitive Lineweaver-Burke plot
ASSAY_METRIC: pKi
Note on units: pKi is unitless, being -log10 of a concentration expressed in mol/L.

Note to self: pKi recorded for O=C(O)c1cc(/N=N/c2ccc(S(=O)(=O)Nc3ccccn3)cc2)ccc1O was 5.06

Note to self: pKi recorded for Nc1ccc(C(=O)O)c(O)c1 was 2.91

Note to self: pKi recorded for O=C(O)c1cc(S(=O)(=O)O)ccc1O was 2.72
